experiment: self-splicing fitness, log relative to wild type (ln ratio); higher = more splicing; Tetrahymena group I intron in knt gene, E. coli kanamycin selection, DiMSum; sequences stand for … in CUCUCU…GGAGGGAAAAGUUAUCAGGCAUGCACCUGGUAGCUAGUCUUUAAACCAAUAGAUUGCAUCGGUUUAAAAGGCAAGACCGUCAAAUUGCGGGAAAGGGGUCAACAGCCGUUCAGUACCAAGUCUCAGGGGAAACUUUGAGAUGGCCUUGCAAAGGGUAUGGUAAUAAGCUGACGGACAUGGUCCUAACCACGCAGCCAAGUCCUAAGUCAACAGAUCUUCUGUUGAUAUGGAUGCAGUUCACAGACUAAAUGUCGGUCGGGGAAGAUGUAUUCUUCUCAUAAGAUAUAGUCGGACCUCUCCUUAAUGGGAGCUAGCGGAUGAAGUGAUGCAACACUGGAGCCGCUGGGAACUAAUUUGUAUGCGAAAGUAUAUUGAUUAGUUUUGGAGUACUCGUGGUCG;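 further: selection with 25 µg/mL kanamycin versus none on LB agar overnight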
reported conditions: 37 °C
I'd appreciate it if you could supply self-splicing fitness (ln) values for the items below.
Give bare numbers.

Would you please look over these solved cases?
[[record]]
sequence_record = "AGGUAGCAAUAUUACGACGG"
reported_result = -1.31

[[record]]
sequence_record = "CUUCAGCAAUAUUACGACUU"
reported_result = -2.34

[[record]]
sequence_record = "UCUUAGCAAUAUUACGUUCG"
reported_result = -1.38

[[record]]
sequence_record = "AUAGAGCAAUAUUACGAUCA"
reported_result = -0.894

[[record]]
sequence_record = "UUGCAGCAAUAUUACGUGAU"
reported_result = -2.06

[[record]]
sequence_record = "UUUUAGCAAUAUUACGCCGU"
reported_result = -2.8

[[record]]
sequence_record = "AGGGAGCAAUAUUACGGGUU"
reported_result = -3.17

[[record]]
sequence_record = "AUAAAGCAAUAUUACGCGCA"
reported_result = -0.398


Provide self-splicing fitness (ln) for all items below, preserving their order.
1. GUAGAGCAAUAUUACGUAUC
2. AGGAAGCAAUAUUACGCUCG
3. AAUUAGCAAUAUUACGCACC
4. CGGAAGCAAUAUUACGACAG
5. CAGAAGCAAUAUUACGGGAC

[-1.58, -0.865, 0.362, 0.0808, -1.25]

Provide self-splicing fitness (ln) for all items below, preserving their order.
1. GCAUAGCAAUAUUACGAUAG
2. GAAUAGCAAUAUUACGAAUC

[-2.34, -0.98]

Return value of self-splicing fitness (ln) for input `AAGAAGCAAUAUUACGCCCA` , no commentary.
-1.85

* * *

experiment: self-splicing fitness, log relative to wild type (ln ratio); higher = more splicing; Tetrahymena group I intron in knt gene, E. coli kanamycin selection, DiMSum; sequences stand for … in CUCUCU…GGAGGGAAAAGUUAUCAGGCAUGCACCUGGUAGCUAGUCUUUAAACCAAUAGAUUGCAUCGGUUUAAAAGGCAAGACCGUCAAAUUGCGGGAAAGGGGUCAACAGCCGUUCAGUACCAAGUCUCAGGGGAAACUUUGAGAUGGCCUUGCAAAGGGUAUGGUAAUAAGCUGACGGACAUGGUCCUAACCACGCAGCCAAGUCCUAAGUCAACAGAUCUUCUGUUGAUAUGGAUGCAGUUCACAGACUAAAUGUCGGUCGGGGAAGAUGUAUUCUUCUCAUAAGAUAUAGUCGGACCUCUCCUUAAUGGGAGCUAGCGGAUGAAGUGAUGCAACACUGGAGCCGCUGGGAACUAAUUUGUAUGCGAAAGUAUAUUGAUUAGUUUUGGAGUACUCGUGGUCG
reported conditions: 30 °C
measured endpoint: self-splicing fitness (ln)

[[record]]
sequence_record = "CUCCAGCAAUAUUACGGGGA"
reported_result = -3.46

[[record]]
sequence_record = "UGUAAGCAAUAUUACGGUUA"
reported_result = -0.297

[[record]]
sequence_record = "CCGAAGCAAUAUUACGAGGC"
reported_result = -4.67


Provide self-splicing fitness (ln) for all items below, preserving their order.
1. CCCCAGCAAUAUUACGUGUC
2. UGACAGCAAUAUUACGGACG
3. UUGAAGCAAUAUUACGGGUC

[-4.78, 0.0374, -3.77]

Provide self-splicing fitness (ln) for all items below, preserving their order.
1. GGGGAGCAAUAUUACGCGUU
2. CGACAGCAAUAUUACGCCUA

1. -2.88
2. -2.48

Provide self-splicing fitness (ln) for all items below, preserving their order.
1. CGUGAGCAAUAUUACGUGCG
2. ACUUAGCAAUAUUACGCAUA

1. -3.21
2. -1.74

Provide self-splicing fitness (ln) for all items below, preserving their order.
1. UGGAAGCAAUAUUACGACCU
2. GCUUAGCAAUAUUACGGCCG
3. GUCAAGCAAUAUUACGAGCC
4. UGUUAGCAAUAUUACGGUGU
5. ACCGAGCAAUAUUACGGUAG
6. AACCAGCAAUAUUACGAUAG

1. 0.308
2. -1.9
3. -4.32
4. -2.57
5. -3.75
6. -2.87

* * *

I'd appreciate it if you could supply self-splicing fitness (ln) values for the items below.
experiment: self-splicing fitness, log relative to wild type (ln ratio); higher = more splicing; Tetrahymena group I intron in knt gene, E. coli kanamycin selection, DiMSum; sequences stand for … in CUCUCU…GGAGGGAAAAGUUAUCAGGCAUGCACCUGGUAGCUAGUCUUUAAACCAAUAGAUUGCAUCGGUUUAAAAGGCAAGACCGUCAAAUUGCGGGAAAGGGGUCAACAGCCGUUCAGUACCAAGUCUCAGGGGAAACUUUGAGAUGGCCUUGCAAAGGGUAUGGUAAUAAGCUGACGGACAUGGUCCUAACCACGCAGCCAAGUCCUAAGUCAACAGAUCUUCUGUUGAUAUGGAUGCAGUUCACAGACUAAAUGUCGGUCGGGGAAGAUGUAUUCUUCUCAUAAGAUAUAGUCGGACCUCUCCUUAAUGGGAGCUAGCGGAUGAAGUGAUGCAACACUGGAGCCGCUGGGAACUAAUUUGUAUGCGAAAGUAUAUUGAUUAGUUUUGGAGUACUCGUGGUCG
reported conditions: 37 °C
Give bare numbers.

Would you please look over these solved cases?
[[record]]
sequence_record = "CGAAAGCAAUAUUACGUUUA"
measured_endpoint = "self-splicing fitness (ln)"
reported_result = -1.83

[[record]]
sequence_record = "UCAGAGCAAUAUUACGAGUU"
measured_endpoint = "self-splicing fitness (ln)"
reported_result = -0.115


Provide self-splicing fitness (ln) for all items below, preserving their order.
1. ACGAAGCAAUAUUACGGUGU
2. GCUCAGCAAUAUUACGGCCG
3. CCCGAGCAAUAUUACGCCUA
4. GACUAGCAAUAUUACGACUA
5. GUUGAGCAAUAUUACGUGAC
6. GCGUAGCAAUAUUACGGCCC

-1.59
-2.15
-2.94
-0.443
-2.48
-2.25

Provide self-splicing fitness (ln) for all items below, preserving their order.
1. UACCAGCAAUAUUACGGAGU
2. AACAAGCAAUAUUACGGGCU
3. UAUAAGCAAUAUUACGAACC
4. GCGCAGCAAUAUUACGUCUG
5. UUUUAGCAAUAUUACGCGGA
6. AGUUAGCAAUAUUACGCGAC
7. GUGAAGCAAUAUUACGGCCG
8. CGACAGCAAUAUUACGAUAA

1: -2.4; 2: -1.15; 3: -1.51; 4: -2.99; 5: -1.44; 6: -0.848; 7: -0.435; 8: -1.27

* * *

experiment: self-splicing fitness, log relative to wild type (ln ratio); higher = more splicing; Tetrahymena group I intron in knt gene, E. coli kanamycin selection, DiMSum; sequences stand for … in CUCUCU…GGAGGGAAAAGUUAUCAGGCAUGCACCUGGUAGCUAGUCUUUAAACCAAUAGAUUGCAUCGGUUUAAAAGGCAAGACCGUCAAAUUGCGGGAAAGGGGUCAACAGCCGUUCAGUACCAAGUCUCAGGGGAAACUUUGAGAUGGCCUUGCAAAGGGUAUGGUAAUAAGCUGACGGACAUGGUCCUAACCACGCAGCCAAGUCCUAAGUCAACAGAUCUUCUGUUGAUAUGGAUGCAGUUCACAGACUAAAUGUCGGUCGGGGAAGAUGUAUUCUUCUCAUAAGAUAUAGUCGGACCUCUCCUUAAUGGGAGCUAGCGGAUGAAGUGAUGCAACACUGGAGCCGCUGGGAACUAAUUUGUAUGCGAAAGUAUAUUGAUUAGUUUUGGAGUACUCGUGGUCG
reported conditions: 30 °C
Okay, here is how we bin by self-splicing fitness (ln): bucket 1 (below -3), bucket 2 (-3 to below -2), bucket 3 (-2 or more)

Look over these answered cases.
[[record]]
sequence_record = "UGCUAGCAAUAUUACGUAUA"
classification = "bucket 2"

[[record]]
sequence_record = "UAAUAGCAAUAUUACGGCUU"
classification = "bucket 3"

[[record]]
sequence_record = "GCUUAGCAAUAUUACGAGCU"
classification = "bucket 2"

[[record]]
sequence_record = "AAUGAGCAAUAUUACGUUAG"
classification = "bucket 1"

[[record]]
sequence_record = "CUGAAGCAAUAUUACGGAGU"
classification = "bucket 1"


For `UCAUAGCAAUAUUACGCAGG` , which self-splicing fitness (ln) bin applies?
bucket 1

For `AUAGAGCAAUAUUACGCAGC` , which self-splicing fitness (ln) bin applies?
bucket 2

For `AUGCAGCAAUAUUACGGUGA` , which self-splicing fitness (ln) bin applies?
bucket 3

For `CACCAGCAAUAUUACGCGGA` , which self-splicing fitness (ln) bin applies?
bucket 2

For `CACAAGCAAUAUUACGCCCG` , which self-splicing fitness (ln) bin applies?
bucket 3

For `GUAGAGCAAUAUUACGAUUC` , which self-splicing fitness (ln) bin applies?
bucket 3
